So I've got a bunch of binders here, and I need their MPV D280 Neutralization - IC50 values.
# tgt: fusion glycoprotein of the MPV D280 used in the neutralization assay of Example 3 (metapneumovirus (strain not stated))
# experiment: cell-based or functional assay
Answer format: numeric, µg/mL implied, no suffix.

What value of MPV D280 Neutralization - IC50 has been recorded for this entry: MPK149 (antibody, V domains shown) VH: QVQLVESGGGLVKPGGSLRLSCEASGFTISGYFMIWIRQAPGKGLEWISSISGSSTYTDYAESVKGRFTISRDNGRSTLYLQMNSLRVEDTAVYYCATEQTPSPGPFDLWGQGTLVTVSS VL: QSVVTQPPSVSGAPGQRVTISCTGTSSNIGAGYDVHWYQQFPGTSPRLLINRNTNRPSGVPDRFSGSQSGSSASLAIAGLQAEDEADYYCQSYDRSVSGWVFGGGTKLTVL
0.0192

What value of MPV D280 Neutralization - IC50 has been recorded for this entry: MPK196 (antibody, V domains shown) VH: QVQLVESGGGLVKPGGSLRLSCAASRFKFGDYYMSWIRQAPGKGLEWVSNISPSSSYTNYADSVKGRFTISRDNANNLLYLQMNSLRAEDTAVYYCARESCSGGSCSLHGMDVWGQGTTVTVAS VL: QSVLTQPPSVSGAPGQRVTISCTGSSSNIGAGYDVHWYQQLPGTAPKLLIYDNSNRPSGVPDRFSGSKSGTSASLAITGLRAEDDADYYCQSYDRSLGGSIFGGGTKLTVL
0.027

What value of MPV D280 Neutralization - IC50 has been recorded for this entry: MPK152 (antibody, V domains shown) VH: EVQLVESGGGLVKPGGSLRLSCAASGLTISGYYMIWIRQAPGKGLEWISYISGSSSYTNYADSVKGRFTISRDNGQNTLFLQMDSLRVEDTAVYFCATEETPSPGPFGLWGQGTLVTVSS VL: QSVVTQPPSVSGAPGQRVTISCTGTSSNIGAGYDVHWYQQFPGTSPKLLIFRNTNRPSGVPDRFSGSTSGSSASLAITGLQTEDEADYYCQSYDRSLDGWVFGGGTELTVL
0.0152

What value of MPV D280 Neutralization - IC50 has been recorded for this entry: MPK151 (antibody, V domains shown) VH: EVQLVESGGGLVKPGGSLRLSCAASGLTISGYYMIWIRQAPGKGLEWISDISASSTYTDYAESVKGRFSISRDNGQNTVYLQMNSLRAEDTAVYYCATEQTPSPGPFDLWGQGTLVTVSS VL: QSVLTQPPSVSGAPGQKITISCTGGSSNFGAGYDVHWYQQFPGTSPKLLIYRNTFRPSGVPDRFSGSKSGTSASLAITGLQAEDEADYYCQSYDRSLSGWVFGGGTKLTVL
0.0178

The origin of these recorded values is patent US20260028391A1.
